molecular target: PN3 (Homo sapiens); assay: 14C Guanidinium Ion Influx Binding Assay (flux assay); details: activity towards PN3, PN3 stably expressed in a host cell line, deltamethrine 10 μM
Sequence (Q9Y5Y9 whole entry, species assumed): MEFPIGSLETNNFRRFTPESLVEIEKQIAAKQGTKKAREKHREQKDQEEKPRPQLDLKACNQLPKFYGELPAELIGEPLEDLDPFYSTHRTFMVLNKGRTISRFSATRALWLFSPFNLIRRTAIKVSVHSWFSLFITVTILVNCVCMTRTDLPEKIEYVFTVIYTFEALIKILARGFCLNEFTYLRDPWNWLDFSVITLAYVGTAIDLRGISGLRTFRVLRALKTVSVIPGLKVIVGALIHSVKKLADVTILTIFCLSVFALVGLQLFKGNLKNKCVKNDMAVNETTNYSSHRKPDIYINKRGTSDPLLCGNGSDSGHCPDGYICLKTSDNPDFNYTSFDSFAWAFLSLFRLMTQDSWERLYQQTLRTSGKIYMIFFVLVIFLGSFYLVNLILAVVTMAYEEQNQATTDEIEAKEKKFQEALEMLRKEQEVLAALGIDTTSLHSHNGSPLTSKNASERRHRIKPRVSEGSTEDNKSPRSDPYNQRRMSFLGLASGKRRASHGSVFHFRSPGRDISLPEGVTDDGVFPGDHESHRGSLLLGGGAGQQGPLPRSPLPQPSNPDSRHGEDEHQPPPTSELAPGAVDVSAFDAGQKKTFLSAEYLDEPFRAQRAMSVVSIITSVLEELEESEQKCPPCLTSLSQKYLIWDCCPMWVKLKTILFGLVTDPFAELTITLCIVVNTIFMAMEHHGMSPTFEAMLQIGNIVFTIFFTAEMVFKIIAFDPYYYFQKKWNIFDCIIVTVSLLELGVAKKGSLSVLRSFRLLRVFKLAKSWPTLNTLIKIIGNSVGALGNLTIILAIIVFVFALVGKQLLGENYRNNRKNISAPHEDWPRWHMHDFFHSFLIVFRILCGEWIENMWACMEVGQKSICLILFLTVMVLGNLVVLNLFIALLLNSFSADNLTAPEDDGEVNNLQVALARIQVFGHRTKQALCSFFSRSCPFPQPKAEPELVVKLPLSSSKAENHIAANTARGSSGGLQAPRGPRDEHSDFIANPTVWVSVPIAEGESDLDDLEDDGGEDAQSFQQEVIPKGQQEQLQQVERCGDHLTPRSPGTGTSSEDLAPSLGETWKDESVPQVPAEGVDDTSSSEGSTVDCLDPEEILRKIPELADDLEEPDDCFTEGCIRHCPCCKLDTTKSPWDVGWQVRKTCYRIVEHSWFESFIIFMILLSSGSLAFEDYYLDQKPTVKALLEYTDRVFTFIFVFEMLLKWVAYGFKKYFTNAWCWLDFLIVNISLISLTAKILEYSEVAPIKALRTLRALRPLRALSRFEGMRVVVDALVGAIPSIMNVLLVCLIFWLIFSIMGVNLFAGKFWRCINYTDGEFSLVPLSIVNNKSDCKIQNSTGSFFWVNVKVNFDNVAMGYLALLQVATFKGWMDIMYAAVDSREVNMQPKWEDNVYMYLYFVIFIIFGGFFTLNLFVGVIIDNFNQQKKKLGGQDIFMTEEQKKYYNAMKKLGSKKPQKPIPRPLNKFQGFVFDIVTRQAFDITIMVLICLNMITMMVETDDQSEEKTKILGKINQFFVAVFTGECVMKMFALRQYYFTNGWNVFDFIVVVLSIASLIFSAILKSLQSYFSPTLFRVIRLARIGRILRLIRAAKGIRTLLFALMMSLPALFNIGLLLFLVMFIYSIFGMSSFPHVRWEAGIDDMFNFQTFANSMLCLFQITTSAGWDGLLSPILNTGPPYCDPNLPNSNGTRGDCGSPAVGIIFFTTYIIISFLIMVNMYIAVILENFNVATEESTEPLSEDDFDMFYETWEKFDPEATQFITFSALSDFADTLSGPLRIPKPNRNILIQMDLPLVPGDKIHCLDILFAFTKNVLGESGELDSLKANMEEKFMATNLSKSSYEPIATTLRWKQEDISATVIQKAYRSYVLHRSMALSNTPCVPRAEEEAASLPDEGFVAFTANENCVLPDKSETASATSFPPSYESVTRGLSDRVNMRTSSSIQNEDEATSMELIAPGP
pIC50: −log10 of the molar value.
pIC50 by entry:

Sample records with pIC50:
* O=C(NCCc1cccc(Cl)c1)c1cnn(-c2cccc(Cl)c2)c1 | 5.40 to 7.00
* CCCc1c(C(=O)NC(Cc2ccccc2)C(=O)OC)cnn1-c1ccccc1 (stereo not shown) | 5.40 to 7.00
* CS(=O)(=O)c1cccc(NC(=O)c2cnn(-c3ccc(Cl)cc3)c2C(F)(F)F)c1 | 5.40 to 7.00

// query // map "NS(=O)(=O)c1cccc(NC(=O)c2cnn(-c3ccc(Cl)cc3)c2C(F)(F)F)c1" to recorded pIC50 (system: PN3 (Homo sapiens))
// result 5.40 to 7.00

// query Lab note: need pIC50 with PN3 (Homo sapiens) for entry "O=C(NCCc1ccccc1Cl)c1cnn(-c2ccc(Cl)cc2)c1C(F)(F)F" , please look it up.
// result 5.40 to 7.00

// query For PN3 (Homo sapiens), provide pIC50 of "Cn1nc(-c2ccccc2)cc1NC(=O)c1cnn(-c2ccc(Cl)cc2)c1C(F)(F)F" please.
// result 5.40 to 7.00

// query Form entry - test system: PN3 (Homo sapiens); read-out: pIC50; compound: "O=C(NCCc1cccc(Cl)c1)c1cnn(-c2ccc(F)cc2)c1C(F)(F)F"
// result 5.40 to 7.00

// query Record lookup: for PN3 (Homo sapiens), what pIC50 belongs to "CN(C)CCNS(=O)(=O)c1cccc(NC(=O)c2cnn(-c3ccc(Cl)cc3)c2C(F)(F)F)c1" ?
// result 5.00 to 5.39

// query Field: pIC50 (PN3 (Homo sapiens)). Entry: "O=C(NCCc1ccccc1)c1cnn(-c2ccc(Cl)cc2)c1C(F)(F)F"
// result 4.52 to 5.00

// query Please provide the recorded pIC50 for "O=C(NCCc1cccc(F)c1)c1cnn(-c2ccc(Cl)cc2)c1C(F)(F)F" , tested on PN3 (Homo sapiens).
// result 5.40 to 7.00
